Data provenance is PubChem BioAssay AID1347426.

Experiment: Novel Modifiers of Survival Motor Neuron (SMN) Protein: Gene Identification via Genome-wide siRNA Screen;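 also: luminescence tracks full-length SMN protein made from the SMN2 reporter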
Conditions: HEK293T SMN2-luciferase reporter, siRNA knockdown, 72 h; actives lie on both sides
Screen size: about 31,000 sequences; about 1,400 (4.5%) were called active.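 The calls were made as follows: active = median seed-adjusted z-score above 1 or below -1; inactive = the rest.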 The entries come from a sample that favours actives as a whole.
Outcomes: 1.0 for active, 0.0 for inactive

{"columns": ["biopolymer.sequence", "category"],
 "data": [
  ["GCGUGGAAAUUGUACCCGUTT against MBNL3", 0.0],
  ["CGAUGUCUAGAGAACAGCATT against LAMB1", 1.0],
  ["GGCACGUUCUGAUCCAGAUTT against ACADM", 0.0],
  ["GGAGUUAUCUGGUGACAAUTT against UROS", 0.0],
  ["CCCUCAAUCCAGCACAAAATT against LILRA4", 0.0],
  ["UGAUCAACCUCAAGACGGATT against MED16", 0.0],
  ["GCCGUUACCAUGGAACUUUTT against GSPT2", 0.0],
  ["GGAAACGAUUAUUACAACUTT against LRRK2", 0.0],
  ["GGCUUCUUCUAUUCAAUUUTT against BCL6B", 0.0],
  ["GCACCAACCUGACCUGUCATT against CD33", 0.0],
  ["GUGCUAAUCUCAAUACCGATT against ZRANB1", 0.0],
  ["CAGGCAAAGUUCGACAGUATT against HEPH", 0.0],
  ["CAUCGAGGGUCAUACUAUUTT against POLR2A", 1.0],
  ["CAUGUUAAUUGUUAAGGAUTT against WFDC8", 0.0],
  ["GGUGGAGACAUUUACAUCUTT against CREB3L1", 0.0],
  ["GGGUGGAGGUGUACUAUGATT against LOXL2", 0.0],
  ["GGAGAUCGUUCUGCACAGATT against PAEP", 0.0],
  ["GCUUAAUGGUGUCCCGUAATT against PCCA", 0.0],
  ["GGUCAUGCAGGGUUGGAAATT against ALDH1B1", 0.0],
  ["GGCUGUCUGCUGUACGAGATT against NEK6", 0.0],
  ["GGAGGUCUAUAUUAUAAGATT against CFHR4", 0.0],
  ["GGCAGAUCCUGACCUUUGATT against PRMT7", 0.0],
  ["GGCUUGCUGUAAUUACCCATT against ABCB1", 0.0],
  ["CAACAAGUGUAACGACGAUTT against SMPD3", 0.0],
  ["GGAUAAUCGACACUCUGGATT against MATN3", 0.0]
]}

###

Experiment: Novel Modifiers of Survival Motor Neuron (SMN) Protein: Gene Identification via Genome-wide siRNA Screen;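 also: luminescence tracks full-length SMN protein made from the SMN2 reporter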
Settings: HEK293T SMN2-luciferase reporter, siRNA knockdown, 72 h; actives lie on both sides
The whole screen tested about 31,000 sequences, of which about 1,400 (4.5%) were called active. This is one part of a sample in which actives are shown more often than they occur.
readout.name: median seed-adjusted z-score

{"columns": ["biopolymer.sequence", "test.result"],
 "data": [
  ["GAUCCACCUUAUACUCAUATT against EPS8", 0],
  ["CGAGAUAACUACUGCCGAUTT against PCOLCE2", -1.15],
  ["GUAUGACCUAAAAACCGAATT against MTRR", -0.381],
  ["CAUUCGAUCUAGCAAAUUATT against TUBB1", -0.289],
  ["AGGUCAGGGUUACAGCUUUTT against MPP2", 0.0496],
  ["GGGAAGCCGCCUAUACCAATT against TK1", -0.0562],
  ["GGGACGAUAUUUUAUGCAUTT against AHRR", -0.636],
  ["CAUUAACAUUGUUCGCAAATT against ACO2", -1.57],
  ["GCCUGAGACCAAAAACAGATT against SLC2A9", 0.216],
  ["GGGCGAGUAUGACCGAUCATT against CTRL", 0.0758],
  ["GACUCAUACCAAUCACGAATT against JMJD1A", 0.466],
  ["GGCACUAUUUCCAAUGGAATT against ADAMTS12", -0.0721],
  ["GGCAAUGCUUUACUAUGAATT against ABCG8", -0.0233],
  ["GAUACUCGUAUUAAGCCUATT against USP32", 0.484],
  ["UGAAAGGACUGGAGUCCAATT against OLFM1", -0.103],
  ["GAGGUGAUCUUAGACCUGATT against QSOX2", 0.498],
  ["GAACAACCUGGAGAAAUAUTT against ENDOG", -0.336],
  ["CGAUCAACUCCUUAAAGGATT against FLRT2", -0.00573],
  ["CCUUGGAGGAGAUCGCUGATT against TEKT2", -0.349],
  ["CAUUCGGUAUUUUAUUCUATT against SNRPD1", -2.97],
  ["GAGCGUGACUGGGUUCUAATT against DDX5", 0.891],
  ["AUGUCACGCUGGUGCCCUATT against IFI30", 0.401],
  ["CGCCUCCAGUUUUAACUCUTT against POU2F3", -1.53],
  ["CGAAGUUUCCUAUAGAGGATT against PCDHGA10", 0.0621],
  ["CCUAAGUUACUACUAGUAUTT against ENPP4", 0]
]}
